Data origin, for the record: patent US8344003B2

This listing pairs compounds with measured EC50.
# TARGET OR TEST SYSTEM: recombinant human liver GK (Homo sapiens)
# Sequence (P35557 1-466 isoform P35557-2): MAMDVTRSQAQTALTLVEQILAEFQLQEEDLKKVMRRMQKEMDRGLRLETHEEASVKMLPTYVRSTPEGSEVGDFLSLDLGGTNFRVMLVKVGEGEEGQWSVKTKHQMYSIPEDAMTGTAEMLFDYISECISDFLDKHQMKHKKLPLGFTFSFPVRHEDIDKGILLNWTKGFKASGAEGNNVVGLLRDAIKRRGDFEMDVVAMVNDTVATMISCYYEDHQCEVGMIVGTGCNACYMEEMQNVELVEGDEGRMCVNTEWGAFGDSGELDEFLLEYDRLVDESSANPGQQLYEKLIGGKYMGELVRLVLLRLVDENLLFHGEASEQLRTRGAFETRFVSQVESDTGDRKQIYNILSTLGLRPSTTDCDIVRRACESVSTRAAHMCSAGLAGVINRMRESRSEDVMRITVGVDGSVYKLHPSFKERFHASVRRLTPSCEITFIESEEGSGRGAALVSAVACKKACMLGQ
# PROCEDURE TEXT: glucokinase (GK) activation assay, Thio-NADH generation via reporter enzyme G6PDH, absorbance at 405 nm
# CONDITION PARAMETERS: GK activation; final glucose concentration 2.5 mM; 30° C.
# Description: The glucokinase activity can be determined without directly measuring glucose-6-phosphate by measuring the amount of Thio-NADH generated during the production of phosphogluconolactone from glucose-6-phosphate by a reporter enzyme glucose-6-phosphate dehydrogenase. Thus, the degree of the glucokinase activity can be determined. The recombinant human liver GK used in this assay expressed as a FLAG fusion protein in E. coli, was purified on […] M2 AFFINITY GEL (Sigma). […]
Express your answer in nM, writing the number without its unit.

Data request, read-out EC50, for COc1ccc(Sc2ccc(Sc3nnc[nH]3)nc2C(=O)Nc2nccs2)cc1
50

New cases:
May I ask what EC50 has been recorded for Cc1ccc(Sc2ccc(Sc3nnc[nH]3)nc2C(=O)Nc2nccs2)cn1 ?
120
